Target: EpCAM (native, on primary lung cancer cells) (Homo sapiens (patient NSCLC tumor cells)) (UniProt P16422)
Sequence: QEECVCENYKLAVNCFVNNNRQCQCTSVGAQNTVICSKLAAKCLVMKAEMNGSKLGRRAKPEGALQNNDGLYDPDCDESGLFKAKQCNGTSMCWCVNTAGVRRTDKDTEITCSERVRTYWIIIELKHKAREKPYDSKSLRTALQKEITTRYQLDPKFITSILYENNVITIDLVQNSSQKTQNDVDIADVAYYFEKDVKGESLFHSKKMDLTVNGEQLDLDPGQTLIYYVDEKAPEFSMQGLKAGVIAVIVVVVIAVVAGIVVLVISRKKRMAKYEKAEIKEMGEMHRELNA
Experiment: flow cytometry (cell binding)
Details: apparent Kd on whole primary lung cancer cells; 1-300 nM aptamer; DPBS, 25 °C, 30 min; cells (3×10^5) pre-incubated with 1 ng/uL salmon sperm DNA; DNA pools/library heated to 95 °C 5 min then on ice 10 min; pH not stated
So I've got a bunch of sequences here, and I need their Kd values.
Numbers only, in nM.

List reported Kd for each of these sequences:
1. CTCCTCTGACTGTAACCACGGTGCGCGTACCACCATGTGTACACACTGCATGTTTGGTTAGCATAGGTAGTCCAGAAGCC [EPCAM-APT-02 (ECM_02)]
2. CTCCTCTGACTGTAACCACGACACGCACAAATGTCAGTGTACCGCACTCGCACATTCTTAGCATAGGTAGTCCAGAAGCC [EPCAM-APT-01 (ECM_01)]

Result block:
1. 15
2. 25
